The reported measurements were obtained from patent US20250213705A1.

Molecular target: Recombinant Human PSMA/FOLH1 Protein (Homo sapiens (Human), UniProt Q04609)
Sequence (Q04609 whole entry): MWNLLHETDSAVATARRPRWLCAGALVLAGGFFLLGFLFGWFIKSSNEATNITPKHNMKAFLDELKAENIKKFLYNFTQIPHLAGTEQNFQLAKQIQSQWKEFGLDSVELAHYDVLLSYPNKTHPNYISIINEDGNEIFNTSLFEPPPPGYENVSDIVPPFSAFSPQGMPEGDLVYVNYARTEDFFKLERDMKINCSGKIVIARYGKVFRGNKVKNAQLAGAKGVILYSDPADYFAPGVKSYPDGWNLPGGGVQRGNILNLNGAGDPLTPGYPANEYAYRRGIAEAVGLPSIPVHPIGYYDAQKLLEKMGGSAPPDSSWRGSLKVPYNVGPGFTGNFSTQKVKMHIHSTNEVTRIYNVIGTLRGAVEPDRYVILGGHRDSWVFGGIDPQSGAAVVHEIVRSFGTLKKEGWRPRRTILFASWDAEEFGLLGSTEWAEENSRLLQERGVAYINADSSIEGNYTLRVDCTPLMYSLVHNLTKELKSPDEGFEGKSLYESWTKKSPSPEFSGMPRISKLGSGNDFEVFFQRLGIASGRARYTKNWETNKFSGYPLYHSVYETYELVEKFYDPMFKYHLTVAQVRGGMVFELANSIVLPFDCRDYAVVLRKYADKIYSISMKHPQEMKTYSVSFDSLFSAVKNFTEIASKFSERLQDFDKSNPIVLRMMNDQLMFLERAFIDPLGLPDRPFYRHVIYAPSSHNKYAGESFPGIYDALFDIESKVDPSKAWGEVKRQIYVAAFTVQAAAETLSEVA
Assay: Inhibition assay (Amplex Red glutamic acid/glutamate oxidase, NAAG substrate)
Settings: Target PSMA; calculated based on Cheng-Prusoff equation; average of N replicates
Description: Amplex™ Red Glutamic Acid/Glutamate Oxidase Assay Kit Catalog number: A12221 (Thermofisher); Recombinant Human PSMA/FOLH1 Protein, CF (rnd systems); N-Acetyl-Asp-Glu (NAAG) (Sigma Aldrich; 96 well half area plate; Enspire plate reader. […] Pipette 20 μl/well of the working solution prepared above. […] Because the assay is continuous (not terminated), fluorescence may be measured at multiple time points to follow the kinetics of the reactions. […] Ec50s were determined with GraphPad Prism. […]
TEST READOUT: Ki (nM)
I only need the number, in nM, no unit after it.

// known answers, use as guide
STRUCTURE NOTATION	Ki, nM
CC(=O)NCCOCCOCCOCCC(=O)NC[C@H]1CC[C@H](C(=O)N[C@H](CC(=O)NCCCC[C@H](NC(=O)N[C@@H](CCC(=O)O)C(=O)O)C(=O)O)Cc2ccccc2)CC1	3.19
CC(=O)NCCOCCOCCOCCC(=O)N1C[C@H](NC(=O)COc2cc(C#N)cc(C#N)c2)C[C@H]1C(=O)N[C@@H](Cc1ccc2ccccc2c1)C(=O)NCCCC[C@H](NC(=O)N[C@@H](CCC(=O)O)C(=O)O)C(=O)O	0.0557
CC(=O)NCCOCCOCCOCCC(=O)N(CCCCOc1cc(C(F)(F)F)cc(C(F)(F)F)c1)CC(=O)N[C@@H](Cc1ccc2ccccc2c1)C(=O)NCCCC[C@H](NC(=O)N[C@@H](CCC(=O)O)C(=O)O)C(=O)O	0.452
CC(=O)NCCOCCOCCOCCC(=O)NC[C@H]1CC[C@H](C(=O)N[C@@H](Cc2ccc3ccccc3c2)C(=O)NCCCC[C@H](NC(=O)N[C@@H](CCc2n[nH]c(=O)o2)C(=O)O)C(=O)O)CC1	73.5

Let us examine a further case.
So, CC(=O)NCCOCCOCCOCCC(=O)NC[C@H]1CC[C@H](C(=O)N[C@@H](Cc2ccc3ccccc3c2)C(=O)NCCCC[C@H](NC(=O)N[C@@H](Cc2cccc(C(=O)O)c2)C(=O)O)C(=O)O)CC1 ? Its Ki was 4300
